Some molecules, each annotated with its measured TGI.
System: UACC-257 melanoma
protocol_notes: NCI tumour cell line growth inhibition, 48 h

Guide cases for TGI, answers given:
| molecule | TGI |
| --- | --- |
| Cc1ccc(S(=O)(=O)c2ccsc2N)cc1 | > 100 µM |
| N=C1C(c2nc(-c3ccc(Br)cc3)cs2)=C(O)CN1CC1CCCO1 (centres undefined) | > 100 µM |
| NC(=S)N/N=C\c1nccc2c(C(F)(F)C(F)(F)C(F)(F)F)cccc12 | 0.575 µM |
| CC(=O)[C@H]1CCC2[C@@H]3CC=C4C(O)C(OS(=O)(=O)O)CC[C@]4(C)C3CC[C@@]21C (some centres undefined) | > 100 µM |
| Cc1ccc(/C=C2\CN(Cc3cn(CCNc4ccnc5cc(Cl)ccc45)nn3)C/C(=C\c3ccc(C)cc3)C2=O)cc1 | 3.38 µM |
| O=S(=O)(/N=C1/SC(=Nc2ccccc2)N(c2ccccc2)/C1=N/S(=O)(=O)c1ccccc1)c1ccccc1 | 43.4 µM |
| CC1(C)CC(=O)C(=CN2C(=O)CNC2=S)C(=O)C1 | > 100 µM |
| O=C1C2=C(c3ccccc31)C(c1ccc(Cl)cc1)NC(=S)N2 (centres undefined) | > 100 µM |
| C/C(=C\c1ccccc1)C(=O)NCc1ccc(C(=O)NCCc2c[nH]c3ccccc23)cc1 | 78.2 µM |
| CCC1OC(/C(C)=C/C(C)/C=C/C2C(C)C2/C=C/C2OC(CC(=O)O)CC(O)C2O)CC=C1C (centres undefined) | > 50 µM |

In: Give reported TGI for O=C(O)CCCc1ccc2c(c1)CC1(C2)Cc2ccc(CCCC(=O)O)cc2C1 (UACC-257 melanoma)
Out: > 100 µM

In: Give reported TGI for CCC1(CC)C(=O)[N-]C(=O)[N-]C1=O.[Au+].[Au+].c1ccc([PH+](c2ccccc2)c2ccccc2)cc1.c1ccc([PH+](c2ccccc2)c2ccccc2)cc1 (UACC-257 melanoma)
Out: 2.53 µM

In: Give reported TGI for N#C/C(=C\c1cccnc1)c1nc2ccccc2o1 (UACC-257 melanoma)
Out: > 100 µM

In: Give reported TGI for COC(=O)C(C(=O)OC)C1CC(=O)c2c(Br)sc(Br)c21 (centres undefined) (UACC-257 melanoma)
Out: 76.8 µM

In: Give reported TGI for COC(=O)C1[C@H](C(=O)OC)C1(Br)CBr (some centres undefined) (UACC-257 melanoma)
Out: > 100 µM

---

Test system: NCI-H226 lung
protocol_notes: NCI tumour cell line growth inhibition, 48 h
measured_parameter: TGI

Guide cases for TGI, answers given:
| compound | TGI |
| --- | --- |
| CNC(C)Cc1ccc(O)cc1 (stereo unspecified) | > 100 µM |
| COc1cc(S(=O)(=O)N/N=C/c2cc(Br)c(O)c(OC)c2)c(OC)cc1NC(C)=O | > 100 µM |
| C=C1C(=O)O[C@H]2C3C(=C(C)CC[C@@H]12)C(=O)[C@@H]1OC31C (stereo partly specified) | 20.5 µM |

In: Tell us which TGI value is on record for CCOC(=O)c1cn(C)nc1N/C(C)=C\C(=O)c1ccccc1
Out: > 100 µM

In: Tell us which TGI value is on record for Cc1cccc(O)c(=O)c1
Out: 29.3 µM

In: Tell us which TGI value is on record for CCOC(=O)c1c(-c2ccc(OC)c(O)c2)c(C#N)c(=S)n(C2OC(CO)C(O)C(O)C2O)c1-c1ccccc1 (stereo unspecified)
Out: > 100 µM

src = PubChem BioAssay (NCI)
